tested on: ATP; assay: switch fluorescence ratio, 500 uM ATP over buffer (Cy3 cluster intensity, sum of 5 cycles each) (fold (ratio)); higher = stronger signal-on switching upon ATP binding; sequences stand for … in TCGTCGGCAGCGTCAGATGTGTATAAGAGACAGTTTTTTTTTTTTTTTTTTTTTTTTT…TC; settings: aptamer strand: ATP DNA aptamer (quencher-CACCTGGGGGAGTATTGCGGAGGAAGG + anchor), 100 nM annealed; ATP concentration: 500 uM;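 further: ATP exposure 15 min at 22 °C before imaging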
Lab note: anything with switch fluorescence ratio at or over 1 counts as Yes; the rest go in No.

TGTGTAAAGG | Yes
TCGTTTAACA | No
AGAGACTGAG | Yes

Please find the next sequence below.
Exercise: # check: switch fluorescence ratio of TGGGTATTCT is greater than or equal to 1
Key: No
